Data origin, for the record: ChEMBL document CHEMBL1154110

The following are reported IC50 results, target or system Mu-type opioid receptor (Rattus norvegicus, UniProt P33535).

Solved entries (count: 5):
[[record]]
compound = "CCC[C@H](CNC)NC[C@@H](CCC)NCCC12CC3CC(CC(C3)C1)C2"
endpoint_result = "> 1000 nM"

[[record]]
compound = "CC(C)[C@@H]1CN([C@@H](CNCc2ccccc2)C(C)C)CCN1CCC1CCCC1"
endpoint_result = "> 1000 nM"

[[record]]
compound = "CCC[C@H](CN[C@H](CNC)Cc1ccc(O)cc1)NCC1CCC(C)CC1 (stereo partly drawn)"
endpoint_result = "> 1000 nM"

[[record]]
compound = "CCC(C)[C@@H](CNC)N1CCN(CCC23CC4CC(CC(C4)C2)C3)[C@H](C(C)C)C1 (stereo partly drawn)"
endpoint_result = "> 1000 nM"

[[record]]
compound = "CC[C@H](C)[C@@H](CNC)N1CCN(CCC2CC3CCC2C3)[C@H](C(C)C)C1 (stereo partly drawn)"
endpoint_result = "> 1000 nM"


For the record CCC[C@H](CNC)NC[C@H](Cc1ccc(O)cc1)NCCC1CCCC1 , what value of IC50 is listed for Mu-type opioid receptor (Rattus norvegicus, UniProt P33535)?
240 nM

Would you mind doing CNC[C@@H](Cc1ccc(O)cc1)N1CCN(CCC2CC3CCC2C3)[C@@H](C(C)C)C1 (stereo partly drawn) as well?
> 1000 nM

Would you mind doing CNC[C@@H](Cc1ccc(O)cc1)N1CCN(CCCC(C)C)[C@@H](C(C)C)C1 as well?
> 1000 nM

Would you mind doing CNC[C@H](Cc1ccc(O)cc1)N1CCN(CCc2cccc(C)c2)[C@@H](C(C)C)C1 as well?
206 nM

Would you mind doing CNC[C@H](Cc1ccc(O)cc1)NC[C@H](Cc1ccc(O)cc1)NCCC1CC2CCC1C2 (stereo partly drawn) as well?
270 nM

Would you mind doing CC[C@H](C)[C@@H](CNC)N1CCN(CCCC2CCCCC2)[C@H](C(C)C)C1 as well?
> 1000 nM

Would you mind doing CNC[C@@H](Cc1ccc(O)cc1)N1CCN(CCc2cccc(C)c2)[C@@H](C(C)C)C1 as well?
> 1000 nM

Would you mind doing CCC[C@H](CN[C@H](CNC)Cc1ccc(O)cc1)NCCC1CCCC1 as well?
648 nM

* * *

# System tested: Kappa-type opioid receptor (Cavia porcellus)
# Sequence (P41144 whole entry): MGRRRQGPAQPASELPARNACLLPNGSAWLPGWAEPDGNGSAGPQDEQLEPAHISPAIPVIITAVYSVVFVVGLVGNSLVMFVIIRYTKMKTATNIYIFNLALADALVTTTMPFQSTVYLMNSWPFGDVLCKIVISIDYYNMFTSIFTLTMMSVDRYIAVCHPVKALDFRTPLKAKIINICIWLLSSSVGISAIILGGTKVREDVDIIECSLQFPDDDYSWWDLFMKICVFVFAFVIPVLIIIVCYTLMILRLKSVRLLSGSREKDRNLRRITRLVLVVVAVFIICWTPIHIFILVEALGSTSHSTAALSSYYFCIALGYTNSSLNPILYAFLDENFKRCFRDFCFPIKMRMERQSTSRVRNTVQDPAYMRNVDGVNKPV
Observed property: IC50

Solved entries (count: 10):
[[record]]
compound = "CCC[C@H](CNC)NC[C@@H](CCC)NCC1CCC(C)CC1 (some centres not stated)"
observed_property = "IC50"
endpoint_result = "> 1000 nM"

[[record]]
compound = "CNC[C@@H](Cc1ccc(O)cc1)N1CCN(CCCC(C)C)CC1"
observed_property = "IC50"
endpoint_result = "> 1000 nM"

[[record]]
compound = "CNC[C@@H](Cc1ccc(O)cc1)N1CCN(CCC2CC3CCC2C3)[C@@H](C(C)C)C1 (some centres not stated)"
observed_property = "IC50"
endpoint_result = "> 1000 nM"

[[record]]
compound = "CNC[C@@H](Cc1ccc(O)cc1)N1CCN(CC2CCCCCC2)[C@@H](C(C)C)C1"
observed_property = "IC50"
endpoint_result = "> 1000 nM"

[[record]]
compound = "CNC[C@@H](Cc1ccc(O)cc1)N1CCN(CCCC(C)C)[C@@H](C(C)C)C1"
observed_property = "IC50"
endpoint_result = "> 1000 nM"

[[record]]
compound = "CNC[C@@H](Cc1ccc(O)cc1)N1CCN(CCc2cccc(C)c2)[C@@H](C(C)C)C1"
observed_property = "IC50"
endpoint_result = "> 1000 nM"

[[record]]
compound = "CC(C)[C@@H]1CN([C@@H](CNCc2ccccc2)C(C)C)CCN1CCC1CCCC1"
observed_property = "IC50"
endpoint_result = "> 1000 nM"

[[record]]
compound = "CNC[C@H](Cc1ccc(O)cc1)N1CCN(CCc2cccc(C)c2)[C@@H](C(C)C)C1"
observed_property = "IC50"
endpoint_result = "> 1000 nM"

[[record]]
compound = "CCC[C@H](CNC)NC[C@@H](CCC)NCC1CCCCCC1"
observed_property = "IC50"
endpoint_result = "> 1000 nM"

[[record]]
compound = "CNC[C@H](Cc1ccc(O)cc1)N1CCN(CC2CCCCCC2)CC1"
observed_property = "IC50"
endpoint_result = "93 nM"


For the record CNC[C@H](Cc1ccc(O)cc1)NC[C@H](Cc1ccc(O)cc1)NCCC1CCCC1 , what value of IC50 is listed for Kappa-type opioid receptor (Cavia porcellus)?
186 nM

Would you mind doing CCCC[C@H](CNCc1ccccc1)N1CCN(CC2CCCCCC2)[C@H](Cc2ccc(O)cc2)C1 as well?
161 nM
